Molecular target: CyclinE1/CDK2 (Homo sapiens)
Construct: purchased Eurofins, discovery 14-475
Test: Fluorescence Polarization (FP) competitive binding assay, Cyclin E1/Cdk2;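 also: readings taken after two-hour equilibration at room temperature in HEPES buffer with NaCl, DTT, NP-40 and BSA, IC50 fitted from eight-concentration serial dilution series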
Settings: 10 nM Cyclin E1/Cdk2, 2 nM FAM probe; average of 2-3 independent experiments; read-out: Cyclin E FP IC50
*1 amine or outer side, *2 acyl side, *3 side chain or, on linkers, in order; H or OH if unused. Where a SMILES comes first, the peptide text is derived from it. Bridges are numbered along the chain shown (N, C = ends). [ ]: non-standard residue; d: D form. The star is where a group is joined. X170 = CN([C@@H](Cc1cc(Cl)ccc1-c1ccc2nonc2c1)C(=O)[*:2])[*:1]; NMehhhLys(Me) = CN([C@@H](CCCCCCCN(C)[*:3])C(=O)[*:2])[*:1]; X17 = CN([C@@H](Cc1cc(Cl)cnc1N1CCOCC1)C(=O)[*:2])[*:1]; cBuCO(3,3-F2-1-CF3) = O=C(C1(C(F)(F)F)CC(F)(F)C1)*; Pro(trans-4-F) = O=C(O)[C@@H]1C[C@@H](F)CN1; Gly(cPr) = N[C@H](C(=O)O)C1CC1
Quick list: pIC50 per entry.
Quick note: pIC50 values are minus log10 of concentrations in mol/L.

# compound, valueMeasured
records = [
    ("CC(C)C[C@@H]1NC(=O)[C@@H](N(C)C(=O)[C@@H](NC(=O)[C@@H]2C[C@@H](F)CN2C(=O)C2(C(F)(F)F)CC(F)(F)C2)C2CC2)CCCCCCCN(C)C(=O)[C@H](Cc2cc(Cl)ccc2-c2ccc3nonc3c2)N(C)C1=O [Example 170] ({cBuCO(3,3-F2-1-CF3)}-[Pro(trans-4-F)][Gly(cPr)][NMehhhLys(Me)]L[X170]; lactam 3-C)", 5.65),
]

Could you now consider this next compound?
Look up pIC50: CC(C)C[C@@H]1NC(=O)[C@@H](N(C)C(=O)[C@@H](NC(=O)[C@@H]2C[C@@H](F)CN2C(=O)C2(C(F)(F)F)CC(F)(F)C2)C2CC2)CCCCCCCN(C)C(=O)[C@H](Cc2cc(Cl)cnc2N2CCOCC2)N(C)C1=O [Example 320] ({cBuCO(3,3-F2-1-CF3)}-[Pro(trans-4-F)][Gly(cPr)][NMehhhLys(Me)]L[X17]; lactam 3-C)
5.84

---

Molecular target: CyclinB1/CDK1 (Homo sapiens)
Construct: purchased Eurofins, discovery 14-450
Test: Fluorescence Polarization (FP) competitive binding assay, Cyclin B1/Cdk1;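 also: fluorescence polarization read after equilibration at room temperature, with IC50 taken from serially diluted dose-response curves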
Details: read-out: Cyclin B FP IC50; 10 nM Cyclin B1/Cdk1, 2 nM FAM probe; average of 2-3 independent experiments
*1 amine or outer side, *2 acyl side, *3 side chain or, on linkers, in order; H or OH if unused. Where a SMILES comes first, the peptide text is derived from it. Bridges are numbered along the chain shown (N, C = ends). [ ]: non-standard residue; d: D form. The star is where a group is joined. X30 = CN([C@@H](Cc1cc(Cl)ccc1-c1ccc2c(c1)ncn2C)C(=O)[*:2])[*:1]; X89 = CN([C@@H](Cc1cc(Cl)ccc1-c1cnn(CC#N)c1)C(=O)[*:2])[*:1]; NMehhhLys(Me) = CN([C@@H](CCCCCCCN(C)[*:3])C(=O)[*:2])[*:1]; X174 = CN([C@@H](Cc1cc(Cl)cnc1-c1cnn(C)c1)C(=O)[*:2])[*:1]; cBuCO(3,3-F2-1-CF3) = O=C(C1(C(F)(F)F)CC(F)(F)C1)*; Pro(trans-4-F) = O=C(O)[C@@H]1C[C@@H](F)CN1; Gly(cPr) = N[C@H](C(=O)O)C1CC1
Quick list: pIC50 per entry.
Quick note: pIC50 values are minus log10 of concentrations in mol/L.

Recorded pIC50, per entry:
# molecule, valueMeasured
measured = [
    ("CC(C)C[C@@H]1NC(=O)[C@@H](N(C)C(=O)[C@@H](NC(=O)[C@@H]2C[C@@H](F)CN2C(=O)C2(C(F)(F)F)CC(F)(F)C2)C2CC2)CCCCCCCN(C)C(=O)[C@H](Cc2cc(Cl)ccc2-c2cnn(CC#N)c2)N(C)C1=O [Example 216] ({cBuCO(3,3-F2-1-CF3)}-[Pro(trans-4-F)][Gly(cPr)][NMehhhLys(Me)]L[X89]; lactam 3-C)", 7.70),
    ("CC(C)C[C@@H]1NC(=O)[C@@H](N(C)C(=O)[C@@H](NC(=O)[C@@H]2C[C@@H](F)CN2C(=O)C2(C(F)(F)F)CC(F)(F)C2)C2CC2)CCCCCCCN(C)C(=O)[C@H](Cc2cc(Cl)ccc2-c2ccc3c(c2)ncn3C)N(C)C1=O [Example 251] ({cBuCO(3,3-F2-1-CF3)}-[Pro(trans-4-F)][Gly(cPr)][NMehhhLys(Me)]L[X30]; lactam 3-C)", 7.70),
]

Could you now consider this next molecule?
Entry CC(C)C[C@@H]1NC(=O)[C@@H](N(C)C(=O)[C@@H](NC(=O)[C@@H]2C[C@@H](F)CN2C(=O)C2(C(F)(F)F)CC(F)(F)C2)C2CC2)CCCCCCCN(C)C(=O)[C@H](Cc2cc(Cl)cnc2-c2cnn(C)c2)N(C)C1=O [Example 246] ({cBuCO(3,3-F2-1-CF3)}-[Pro(trans-4-F)][Gly(cPr)][NMehhhLys(Me)]L[X174]; lactam 3-C) , system CyclinB1/CDK1 (Homo sapiens): what pIC50 was measured?
7.70

---

Quick list: pIC50 per entry.
Target: CyclinA2/CDK2 (Homo sapiens, UniProt P20248)
Construct: purchased CRELUX Protein Services
Test: Fluorescence Polarization (FP) competitive binding assay, Cyclin A2/Cdk2;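 also: plates equilibrated two hours at room temperature before polarization reading, IC50 fitted from eight-concentration compound titration curves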
Details: 8 nM Cyclin A2/Cdk2, 2 nM FAM probe; average of 2-3 independent experiments; read-out: Cyclin A FP IC50
*1 amine or outer side, *2 acyl side, *3 side chain or, on linkers, in order; H or OH if unused. Where a SMILES comes first, the peptide text is derived from it. Bridges are numbered along the chain shown (N, C = ends). [ ]: non-standard residue; d: D form. The star is where a group is joined. ξ: configuration not given here. X160 = CC(=O)N1CC=C(c2ccc(Cl)cc2C[C@@H](C(=O)[*:2])N(C)[*:1])C(C)(C)C1; X189 = CN([C@@H](Cc1cc(Cl)ccc1-c1ccc2scnc2c1)C(=O)[*:2])[*:1]; X68 = CN([C@@H](Cc1cc(Cl)ccc1-c1cnn(C2CC2)c1)C(=O)[*:2])[*:1]; NMehhhLys(Me) = CN([C@@H](CCCCCCCN(C)[*:3])C(=O)[*:2])[*:1]; X131 = CN([C@@H](Cc1cc(F)cnc1-c1cnn(C)c1)C(=O)[*:2])[*:1]; NMe3Pal(2-OcPr,5-F) = CN[C@@H](Cc1cc(F)cnc1OC1CC1)C(=O)O; NMe(hhhLys) = CN([C@@H](CCCCCCCN[*:3])C(=O)[*:2])[*:1]; cBuCO(3,3-F2-1-CF3) = O=C(C1(C(F)(F)F)CC(F)(F)C1)*; Pro(trans-4-F) = O=C(O)[C@@H]1C[C@@H](F)CN1; Gly(cPr) = N[C@H](C(=O)O)C1CC1; ξGly(cPr) = NC(C(=O)O)C1CC1
Quick note: pIC50 values are minus log10 of concentrations in mol/L.

Recorded pIC50, per entry:
# compound, pIC50
measured = [
    ("CC(C)C[C@@H]1NC(=O)[C@@H](N(C)C(=O)[C@@H](NC(=O)[C@@H]2C[C@@H](F)CN2C(=O)C2(C(F)(F)F)CC(F)(F)C2)C2CC2)CCCCCCCNC(=O)[C@H](Cc2cc(F)cnc2OC2CC2)N(C)C1=O [Example 127] ({cBuCO(3,3-F2-1-CF3)}-[Pro(trans-4-F)][Gly(cPr)][NMe(hhhLys)]L[NMe3Pal(2-OcPr,5-F)]; lactam 3-C)", 7.10),
    ("CC(C)C[C@@H]1NC(=O)[C@@H](N(C)C(=O)[C@@H](NC(=O)[C@@H]2C[C@@H](F)CN2C(=O)C2(C(F)(F)F)CCC2)C2CC2)CC=CCCCCN(C)C(=O)[C@H](Cc2cc(F)ccc2-c2cncnc2)N(C)C1=O [Example 41]", 6.80),
    ("CCN(C(=O)[C@@H](NC(=O)[C@@H]1C[C@@H](F)CN1C(=O)C1(C(F)(F)F)CC(F)(F)C1)C1CC1)[C@H]1CCCCCCCN(C)C(=O)[C@H](Cc2cc(Cl)ccc2-c2ccc(N3CCN(C)CC3)cc2)N(C)C(=O)[C@H](CC(C)C)NC1=O [Example 388]", 7.70),
    ("CC(C)C[C@@H]1NC(=O)[C@@H](N(C)C(=O)[C@@H](NC(=O)[C@@H]2C[C@@H](F)CN2C(=O)C2(C(F)(F)F)CC(F)(F)C2)C2CC2)CC=CCCCCN(C)C(=O)[C@H](Cc2cc(Cl)cnc2OC2CC2)N(C)C1=O [Example 104]", 6.80),
    ("CC(=O)N1CC=C(c2ccc(Cl)cc2C[C@H]2C(=O)NCCCCCCC[C@H](N(C)C(=O)C(NC(=O)[C@@H]3C[C@@H](F)CN3C(=O)C3(C(F)(F)F)CC(F)(F)C3)C3CC3)C(=O)N[C@@H](CC(C)C)C(=O)N2C)C(C)(C)C1 (stereo partly drawn) [Example 277] ({cBuCO(3,3-F2-1-CF3)}-[Pro(trans-4-F)][ξGly(cPr)][NMe(hhhLys)]L[X160]; lactam 3-C)", 6.22),
    ("CC(C)C[C@@H]1NC(=O)[C@@H](N(C)C(=O)[C@@H](NC(=O)[C@@H]2C[C@@H](F)CN2C(=O)C2(C(F)(F)F)CC(F)(F)C2)C2CC2)CCCCCCCN(C)C(=O)[C@H](Cc2cc(F)cnc2-c2cnn(C)c2)N(C)C1=O [Example 244] ({cBuCO(3,3-F2-1-CF3)}-[Pro(trans-4-F)][Gly(cPr)][NMehhhLys(Me)]L[X131]; lactam 3-C)", 7.22),
    ("CC(C)C[C@@H]1NC(=O)[C@@H](N(C)C(=O)[C@@H](NC(=O)[C@@H]2N[C@@H](F)CC2C(=O)C2(C(F)(F)F)CC(F)(F)C2)C2CC2)CC=CCCCCN(C)C(=O)[C@H](Cc2cc(Cl)cnc2OC(C)C)N(C)C1=O (stereo partly shown) [Example 130]", 7.15),
    ("CC(C)C[C@@H]1NC(=O)[C@@H](N(C)C(=O)[C@@H](NC(=O)[C@@H]2C[C@@H](F)CN2C(=O)C2(C(F)(F)F)CC(F)(F)C2)C2CC2)CCCCCCCN(C)C(=O)[C@H](Cc2cc(Cl)ccc2-c2ccc3scnc3c2)N(C)C1=O [Example 169] ({cBuCO(3,3-F2-1-CF3)}-[Pro(trans-4-F)][Gly(cPr)][NMehhhLys(Me)]L[X189]; lactam 3-C)", 7.52),
]

Could you now consider this next compound?
Look up pIC50: CC(C)C[C@@H]1NC(=O)[C@@H](N(C)C(=O)[C@@H](NC(=O)[C@@H]2C[C@@H](F)CN2C(=O)C2(C(F)(F)F)CC(F)(F)C2)C2CC2)CCCCCCCNC(=O)[C@H](Cc2cc(Cl)ccc2-c2cnn(C3CC3)c2)N(C)C1=O [Example 67] ({cBuCO(3,3-F2-1-CF3)}-[Pro(trans-4-F)][Gly(cPr)][NMe(hhhLys)]L[X68]; lactam 3-C)
7.70
